Assay: in vivo
Conditions: female, C57BL/6, mouse, po, 50 mg/kg, Tmax, C57Bl/6 mice, oral 50 mg/kg QD-4 days, plasma
QUANTITY: Tmax (min)
Your answer should be a plain number; it is taken to be in min.

Recorded Tmax for CCS(=O)(=O)N1N=Cc2ccc(Oc3ccc(C(F)(F)F)cc3/C=N/O)cc2B1O [AN12855] , please?
30

---

Assay: in vivo
Conditions: female, CD-1, mouse, iv, 5 mg/kg
QUANTITY: AUC(0-inf) (ng·h/mL)
Your answer should be a plain number; it is taken to be in ng·h/mL.

Recorded AUC(0-inf) for CCS(=O)(=O)N1N=Cc2ccc(Oc3ccc(C(F)(F)F)cc3/C=N/O)cc2B1O , please?
14400
